# TEST TARGET: UniProt:P04585
# ASSAY NAME: HIV-protease inhibitory activity assay (FRET peptide substrate)
# CONDITION DETAILS: Test Example 1
# Description: Test Example 1: HIV-Protease Inhibitory Activity Assay The HIV-1 PR assay was performed by using a FRET (Fluorescence Resonance Energy Transfer) peptide substrate (AnaSpec, Inc., Fremont, Calif.). Initially in the intact FRET peptide, the fluorescence of HiLyte Fluor 488 is quenched by QXL 520. Upon substrate cleavage by PR, the fluorescence is recovered and can be monitored. […] Background fluorescence intensity was measured and let it stand for another 15 minutes at room temperature. […]
This section presents molecules with their documented pIC50 values.
Quick note: pIC50 means taking -log10 of the concentration in moles per liter.

{"MOLECULE": "COc1ccc(S(=O)(=O)N(CC(C)C)CC(O)C(Cc2ccc(-c3sccc3C(=O)O)cc2)NC(=O)OC2COC3(C)OCCC23)cc1 (stereo not shown)", "PARAMETER": "pIC50", "EXPERIMENTAL RESULT": 8.95}
{"MOLECULE": "COc1ccc(S(=O)(=O)N(CC2CCCC2)CC(O)C(Cc2ccc(NCc3ccccc3C(=O)Nc3sc4c(c3C(=O)O)CC(C)(C)CC4)cc2)NC(=O)OC2COC3(C)OCCC23O)cc1 (stereo not shown)", "PARAMETER": "pIC50", "EXPERIMENTAL RESULT": 8.39}
{"MOLECULE": "COc1ccc(S(=O)(=O)N(CC(C)C)CC(O)C(Cc2ccc(N(C)Cc3cc(N4CCCC4=O)ccc3-c3sc4c(c3C(=O)O)CC(C)(C)CC4)cc2)NC(=O)OC2COC3(C)OCCC23)cc1 (stereo not shown)", "PARAMETER": "pIC50", "EXPERIMENTAL RESULT": 8.64}
{"MOLECULE": "COc1ccc(S(=O)(=O)N(CC(C)C)CC(O)C(Cc2ccc(OCc3ccccc3-c3sc4c(c3C(=O)O)CC(C)(C)CC4)cc2)NC(=O)OC2COC3(C)OCC(OCc4ccccc4)C23)cc1 (stereo not shown)", "PARAMETER": "pIC50", "EXPERIMENTAL RESULT": 8.13}

// query pIC50 value for entry COc1ccc(S(=O)(=O)N(CC(C)C)CC(O)C(Cc2ccc(N(C)Cc3ccc(N4CC(C)(C)C4=O)cc3-c3sc4c(c3C(=O)O)CC(C)(C)CC4)cc2)NC(=O)OC2COC3(C)OCCC23)cc1 (stereo not shown)
8.34

What about this molecule? COc1ccc(S(=O)(=O)N(CC(C)C)CC(O)C(Cc2ccc(NCc3cccc(F)c3C(=O)Nc3sc4c(c3C(=O)O)CC(C)(C)CC4)cc2)NC(=O)OC2COC3(C)OCCC23)cc1 (stereo not shown)
8.63

Repeat for the following molecule: CCCCN(Cc1ccccc1-c1sc2c(c1C(=O)O)CC(C)(C)CC2)c1ccc(CC(NC(=O)OC2COC3(C)OCCC23)C(O)CN(CC(C)C)S(=O)(=O)c2ccc(OC)cc2)cc1 (stereo not shown)
8.25

Consider next the molecule COc1ccc(S(=O)(=O)N(CC(C)C)CC(O)C(Cc2ccc(N(C)CC3CCCCC3C(=O)Nc3sc4c(c3C(=O)O)CC(C)(C)CC4)cc2)NC(=O)OC2COC3(C)OCCC23)cc1 (stereo not shown) [Compound I-616] in the same way.
8.38

Item: CC1(C)CCc2sc(NC(=O)c3ccccc3CNc3ccc(CC(NC(=O)OC4COC5OCCC45)C(O)CN(CC4CCCC4)S(=O)(=O)c4ccc5c(c4)OCO5)cc3)c(C(=O)O)c2C1 (stereo not shown)
8.37

Please answer likewise for `COc1ccc(S(=O)(=O)N(CC(C)C)C[C@@H](O)[C@H](Cc2ccc(NC(=O)Nc3sc4c(c3C(=O)O)CC(C)(C)CC4)cc2)NC(=O)O[C@H]2CO[C@@]3(C)OCC[C@@H]23)cc1`
8.64
